System: HCT-116, HePG-2, HeLa and MCF-7 cells
ASSAY PROCEDURE: MTT cytotoxicity summarised over the 4 cancer cell lines
Format: cell-based
ASSAY CONTEXT: Homo sapiens, read-out: IC50 range of one compound over the cancer cell lines
pIC50: −log10 of the molar value.
TEST READOUT: pIC50

Known results for compounds:
INSERT INTO results (smiles_entry, assay_target, test_readout, meas_value) VALUES
  ('O=C(NCCSc1nc2cc(Cl)ccc2c(=O)n1-c1ccccc1)Nc1ccc(Br)cc1', 'HCT-116, HePG-2, HeLa and MCF-7 cells', 'pIC50', '4.31 to 4.54'),
  ('O=C(NCCSc1nc2ccccc2c(=O)n1-c1ccccc1)Nc1ccc(Br)cc1', 'HCT-116, HePG-2, HeLa and MCF-7 cells', 'pIC50', '4.17 to 4.32'),
  ('O=C(NCCSc1nc2cc(Cl)ccc2c(=O)n1-c1ccccc1)NCc1ccc(Cl)cc1', 'HCT-116, HePG-2, HeLa and MCF-7 cells', 'pIC50', '4.85 to 5.10'),
  ('O=C(NCCSc1nc2ccccc2c(=O)n1-c1ccccc1)Nc1ccc(C(F)(F)F)cc1', 'HCT-116, HePG-2, HeLa and MCF-7 cells', 'pIC50', '5.05 to 5.62'),
  ('COc1ccc(CNC(=O)NCCSc2nc3ccccc3c(=O)n2-c2ccccc2)cc1', 'HCT-116, HePG-2, HeLa and MCF-7 cells', 'pIC50', '4.47 to 4.83'),
  ('O=C(NCCSc1nc2ccccc2c(=O)n1-c1ccccc1)NCCc1ccc(Cl)cc1', 'HCT-116, HePG-2, HeLa and MCF-7 cells', 'pIC50', '4.23 to 4.41'),
  ('O=C(NCCSc1nc2cc(Cl)ccc2c(=O)n1-c1ccccc1)Nc1ccc(C(F)(F)F)cc1', 'HCT-116, HePG-2, HeLa and MCF-7 cells', 'pIC50', '4.51 to 4.74'),
  ('O=C(NCCSc1nc2ccccc2c(=O)n1-c1ccccc1)NCc1ccc(Cl)cc1', 'HCT-116, HePG-2, HeLa and MCF-7 cells', 'pIC50', '4.27 to 4.45');

Ask: So what's the measured pIC50 for this one? `O=C(NCCSc1nc2cc(Cl)ccc2c(=O)n1-c1ccccc1)NCCc1ccc(Cl)cc1`
Reply: 4.65 to 4.97

Ask: Similarly, `O=C(NCCSc1nc2cc(Cl)ccc2c(=O)n1-c1ccccc1)Nc1ccc(Cl)cc1` ?
Reply: 4.39 to 4.63

Ask: Similarly, `COc1ccc(NC(=O)NCCSc2nc3ccccc3c(=O)n2-c2ccccc2)cc1` ?
Reply: 4.08 to 4.20

Ask: Similarly, `O=C(NCCSc1nc2ccccc2c(=O)n1-c1ccccc1)Nc1ccc(Cl)cc1` ?
Reply: 4.00 to 4.11

Ask: Similarly, `COc1ccc(NC(=O)NCCSc2nc3cc(Cl)ccc3c(=O)n2-c2ccccc2)cc1` ?
Reply: 4.80 to 5.02

Ask: Similarly, `COc1ccc(CNC(=O)NCCSc2nc3cc(Cl)ccc3c(=O)n2-c2ccccc2)cc1` ?
Reply: 4.04 to 4.16
